biological target: Cdk2(R122C) (C177A) (Homo sapiens, UniProt P24941, C177A/R122C); construct: poly-histidine; made in house; host or cells: E. coli; assay: Kinetic thiol consumption assay with Cdk2 mutant R122C; format: binding; conditions: Protein: Cdk2; cysteine position R122C; additional mutation C177A; in h-1
measuredEndpoint: Rate constant with Cdk2 R122C
Give bare numbers.

Some solved entries appear below for comparison.
C=CC(=O)N1CCc2sccc2C1c1cccs1 (centres unmarked) = 0.01362
C=CC(=O)N1CCC2(CC1)CC2C(=O)OC (centres unmarked) = 0.001809
C=CC(=O)NCCc1c[nH]c2ccccc12 = 0.002235

Please report Rate constant with Cdk2 R122C for every entry that follows.
1. C=CC(=O)N1C(C(=O)c2ccccc2)C1c1ccccc1 (centres unmarked)
2. C=CC(=O)N1CCCC2(CCCc3ccccc32)C1 (centres unmarked)
3. C=CC(=O)Nc1[nH]nc(C2CC2)c1-c1ccc2c(c1)OCO2
4. C=CC(=O)N1CCc2cc(-c3cccc(F)c3)ccc21
5. C=CC(=O)N1CCCC1c1ccc(OC)cc1 (centres unmarked)
6. C=CC(=O)N1CCn2c(Cc3ccccc3)nnc2C1
7. C=CC(=O)NC1C[C@@H](C(=C)C)CC=C1C (some centres unmarked)
8. C=CC(=O)N1CCC(c2nnc3n2CCC3)CC1

[0.004377, 0.004528, 0.002178, 0.001778, 0.003068, 0.1896, 0.0033, 0.001115]

* * *

Molecular target: Cdk2(S181C) (C177A) (Homo sapiens, UniProt P24941, C177A/S181C)
Construct: poly-histidine; made in house; host or cells: E. coli
Experiment: Kinetic thiol consumption assay with Cdk2 mutant S181C
Type: binding
Details: Protein: Cdk2; cysteine position S181C; additional mutation C177A; in h^-1
Description: To wells containing 150 μL thiol (Cdk2 or model thiol) (5 μM) in degassed phosphate buffer (pH 8) was added immobilized TCEP beads (2% v/v). After incubation of the fluorescence plates for 1 hour at room temperature, fluorescence measurements (excitation/emission of 380/470 nm) were taken on a PerkinElmer EnVision multilabel plate reader and processed with EnVision Workstation version 1.12. Fluorescence measurements were normalized against a DMSO/thiol only control and plotted against time. […]
Category key, based on recorded Rate constant with Cdk2 S181C: low bin = under 0.006, mid bin = from 0.006 up to 0.03, high bin = 0.03 and over

# count of solved cases: 6
C=CC(=O)NC1C2CC3CC(C2)CC1C3 (stereo not drawn) [CA-055] = low bin
C=CC(=O)Nc1nc2c(s1)CCCCCC2 [CA-170] = high bin
C=CC(=O)N1CCN(c2cc(N3CCOCC3)ncn2)CC1 [CA-179] = mid bin
C=CC(=O)NC1CC(NC(=O)C2CCC2)C1 (stereo not drawn) [CA-202] = mid bin
C=CC(=O)N1CC(OCc2cccc3ccccc23)C1 [CA-203] = high bin
C=CC(=O)N1CCCC1CC1CC2CCC1C2 (stereo not drawn) [CA-087] = low bin

Class (by measured Rate constant with Cdk2 S181C) for C=CC(=O)Nc1ccc(C23CC4CC(CC(O)(C4)C2)C3)cc1 [CA-194]
low bin

Class (by measured Rate constant with Cdk2 S181C) for C=CC(=O)Nc1ccc(C(=O)c2ccccc2)cc1 [CA-219]
high bin

Class (by measured Rate constant with Cdk2 S181C) for C=CC(=O)N1CCCc2cc(C(=O)OC)ccc21 [EL-1071]
mid bin

Class (by measured Rate constant with Cdk2 S181C) for C=CC(=O)N1CCC2(CC1)CC2C(=O)OC (stereo not drawn) [CA-039]
low bin

Class (by measured Rate constant with Cdk2 S181C) for C=CC(=O)Nc1ccc(C(=O)OC)cc1 [CA-028]
high bin

Class (by measured Rate constant with Cdk2 S181C) for C=CC(=O)N1CCC2(CC1)NC(=O)N(C)C2=O [CA-046]
low bin

Class (by measured Rate constant with Cdk2 S181C) for C=CC(=O)N1CC2CCCCCCC21 (stereo not drawn) [CA-098]
mid bin

Class (by measured Rate constant with Cdk2 S181C) for O=S1(=O)C=CC(Br)C1 (stereo not drawn) [EN010]
high bin

Class (by measured Rate constant with Cdk2 S181C) for C=CC(=O)N1CCN(Cc2ccc(Cl)cc2)CC1 [EL-1183]
low bin

Class (by measured Rate constant with Cdk2 S181C) for C=CC(=O)N1CC2CC2C1 (stereo not drawn) [CA-211]
mid bin

Class (by measured Rate constant with Cdk2 S181C) for C=CC(=O)N1CCC(c2nnc3n2CCC3)CC1 [CA-106]
mid bin

Class (by measured Rate constant with Cdk2 S181C) for C=CC(=O)Nc1cccc(C(F)(F)F)c1 [EL-1007]
mid bin

* * *

biological target: human cyclin-dependent kinase 2 (Cdk2) (Homo sapiens); construct: poly-histidine; made in house; host or cells: E. coli; experiment: Kinetic thiol consumption assay with wild type Cdk2 (C177); assay type: binding; set-up: unit not given here; conditions: 500 μM ligand, 5 μM thiol, phosphate buffer pH 8
measuredEndpoint: Rate constant with Cdk2 (k(Cdk2))
One number for each entry.

Some solved entries appear below for comparison.
C=CC(=O)N1CCn2cccc2C1c1ccccc1 (stereo not drawn) [CA-187] = 0.02811
C=CC(=O)NC(C)c1cc(OC)c(OC)c(OC)c1 (stereo not drawn) [EL-1101] = 0.00341
C=CC(=O)NCCc1c(-c2ccccn2)[nH]c2ccc(F)cc12 [EL-1084] = 0.00314
C=CC(=O)NC1C2CC3CC(C2)CC1C3 (stereo not drawn) [CA-055] = 0.0007
C=CC(=O)NC1C[C@@H](C(=C)C)CC=C1C (stereo partly drawn) [EL-1074] = 0.003

Next:
Quick note, Rate constant with Cdk2 (k(Cdk2)) for C=CC(=O)N1CCCc2sccc2C1 [CA-034] landed at 0.02784

* * *

biological target: Cdk2(H71C) (C177A) (Homo sapiens, UniProt P24941, C177A/H71C); construct: poly-histidine; made in house; host or cells: E. coli; assay: Kinetic thiol consumption assay with Cdk2 mutant H71C; assay type: binding; settings: Protein: Cdk2; cysteine position H71C; additional mutation C177A; in h^-1
Category key, based on recorded Rate constant with Cdk2 H71C: lower bin: < 0.003; middle bin: ≥ 0.003 and < 0.01; upper bin: ≥ 0.01

# count of solved cases: 2
C=CC(=O)NCCNC(=O)C1CCCN1S(=O)(=O)c1ccccc1 (stereo not drawn) = middle bin
C=CC(=O)N1CCCC(C(=O)OCC)C1 (stereo not drawn) = middle bin

Class (by measured Rate constant with Cdk2 H71C) for C=CC(=O)Nc1ccc(C(=O)c2ccccc2)cc1
upper bin

Class (by measured Rate constant with Cdk2 H71C) for C=CC(=O)Nc1cccc(C(=O)c2ccccc2)c1
upper bin

Class (by measured Rate constant with Cdk2 H71C) for O=C(CCl)N1CCCCCC1
upper bin

Class (by measured Rate constant with Cdk2 H71C) for CN(C#N)Cc1ccccc1
lower bin

Class (by measured Rate constant with Cdk2 H71C) for C=CS(=O)(=O)c1ccccc1
upper bin

Class (by measured Rate constant with Cdk2 H71C) for C=CC(=O)NCc1ccc(-c2csnn2)cc1
lower bin

Class (by measured Rate constant with Cdk2 H71C) for C=CC(=O)N1CC(n2cccn2)C1
lower bin

Class (by measured Rate constant with Cdk2 H71C) for C=CC(=O)N1CCC2(CC1)NC(=O)N(C)C2=O
lower bin

* * *

For each of the compounds below, state its Rate enhancement, Cdk2 F80C.
molecular target: Cdk2(C177A, F80C) (Homo sapiens, UniProt P24941, C177A/F80C); construct: poly-histidine; made in house; host or cells: E. coli; experiment: Kinetic thiol consumption assay with Cdk2 mutant F80C, incl. kobs versus concentration (Kd, k2); format: binding; design: key: Cdk2 rate constant divided by model-thiol rate constant; details: Cdk2 F80C, additional mutation C177A
Answers are plain numbers.

Some solved entries appear below for comparison.
C=CC(=O)NCc1ccc(-c2ccccc2)cc1 [EL-1050] = 0
C=CC(=O)Nc1nc2cc3c(cc2s1)OC(F)(F)O3 [CA-142] = 9.635

Please report Rate enhancement, Cdk2 F80C for every entry that follows.
1. C=CC(=O)N(c1ccc2c(c1)OCCO2)C1CC1 [CA-167]
2. C=CC(=O)N1CCCCCC1C/C=C/c1ccccc1 (centres unmarked) [CA-096/146]

1: 0.289; 2: 1.641

* * *

biological target: Cdk2[C177A, F80C, K278C] (Homo sapiens, UniProt P24941, C177A/F80C/K278C); construct: poly-histidine; made in house; host or cells: E. coli; test: Kinetic thiol consumption assay with mutant Cdk2 as model thiol; format: binding; set-up: unit not given here; settings: 500 μM ligand, 5 μM thiol, phosphate buffer pH 8
measuredEndpoint: Rate constant with Cdk2[C177A, F80C, K278C] (k(Cdk2_mut))
Numbers only.

Some solved entries appear below for comparison.
C=CC(=O)N1CCCN(Cc2noc(C3CC3)n2)CC1 = 0.0021
C=CC(=O)Nc1ccccc1C#N = 0.165
C=CC(=O)N1CC2CC2C1 (stereo not shown) = 0.00172
C=CC(=O)NCc1ccc(F)cc1 = 0.00167
C=CC(=O)N(c1ccc2c(c1)OCCO2)C1CC1 = 0.00264

Please report Rate constant with Cdk2[C177A, F80C, K278C] (k(Cdk2_mut)) for every entry that follows.
1. C=CC(=O)N1CCC(c2nc3ccccc3[nH]2)CC1
2. C=CC(=O)Nc1cccc(-c2cc3ccccc3[nH]2)c1

1: 0.0058; 2: 0.03487
